assay: TOX21_p53_BLA_p4_viability: Viability Assessment in the Tox21 HCT-116 p53 Agonism Beta-lactamase Assay, Phase 4 (AID 2283597);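 also: hits lower the luminescence signal meaning cytotoxicity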
Inconclusive results are not listed. Active and inactive are the calls of the source. The calls were made as follows: active = hit-call score of the fitted dose curve at least 0.9, where 1 is the maximum; inconclusive = response in the unintended direction; inactive = score below 0.9.
Labels: active, inactive

{"columns": ["Compound", "Assigned label"],
 "data": [
  ["CCN1CCCC1CNC(=O)c1cc(S(=O)(=O)CC)ccc1OC (centres undefined)", "inactive"],
  ["Cc1ccc(C2(O)CCN(CCCC(=O)c3ccc(F)cc3)CC2)cc1", "inactive"],
  ["NC(=O)Nc1ccc(Cl)c(Cl)c1", "inactive"],
  ["CO[C@@H]1[C@@H](OC)[C@H](C)[C@@](O)(CC(=O)O)O[C@H]1[C@H](C)[C@H]1O[C@@]2(CC[C@@](C)([C@H]3CC[C@@](C)([C@@H]4O[C@@H]([C@H]5O[C@](C)(O)[C@H](C)C[C@@H]5C)C[C@@H]4OC4C[C@H](OC)[C@@H](OC)[C@H](C)O4)O3)O2)C[C@H](O)[C@H]1C (some centres undefined)", "inactive"],
  ["COC(=O)[C@H]1[C@H]2C[C@@H]3c4[nH]c5cc(OC)ccc5c4CCN3C[C@H]2C[C@H](OC)[C@@H]1OC", "inactive"],
  ["CCO[Si](CC(C)C)(OCC)OCC", "inactive"],
  ["N#Cc1ccc(C(=O)O)cc1", "inactive"],
  ["C=C(C)C(=O)OCCCC", "inactive"],
  ["NC1(c2ccc(-c3nc4ccn5c(=O)[nH]nc5c4cc3-c3ccccc3)cc2)CCC1", "active"],
  ["CCCCCN(CCCCC)C(=O)C(CCC(=O)O)NC(=O)c1ccc(Cl)c(Cl)c1 (centres undefined)", "inactive"],
  ["C=C(Nc1ccc(OCC)cc1)Nc1ccc(OCC)cc1", "inactive"],
  ["Cc1cc(O)c2c(c1)O[C@@]1(C)CC[C@H]3C(C)(C)CCCC34CO[C@@H]2[C@H]41 (some centres undefined)", "active"],
  ["O=C1c2c(O)cccc2C([C@@H]2O[C@H](CO)[C@@H](O)[C@H](O)[C@H]2O)c2cc(CO)cc(O)c21 (some centres undefined)", "inactive"],
  ["Cc1occc1S", "inactive"],
  ["CCCCCCCCCCCCCCCCCCOCCO", "inactive"],
  ["CC=CC(=O)CCCC", "inactive"],
  ["COc1cc2c(Nc3ccc(Br)cc3F)ncnc2cc1OCC1CCN(C)CC1", "inactive"],
  ["COc1cccc2c1[C@@H]1CN(CCCCn3c(=O)[nH]c4c(sc5ncc(-c6ccccc6)nc54)c3=O)C[C@@H]1CO2", "active"],
  ["O=C(O)c1ccc(Cl)c(Cl)c1", "inactive"],
  ["Nc1c2c(nc3ccccc13)CCCC2", "inactive"],
  ["CC(COc1ccccc1)N(CCCl)Cc1ccccc1 (centres undefined)", "inactive"],
  ["COc1cc(NC(C)CCCN)c2ncccc2c1 (centres undefined)", "inactive"],
  ["COC(=O)CCc1ccc(OCC(O)CNC(C)C)cc1 (centres undefined)", "inactive"],
  ["CC(C)(C)NCC(O)c1cc(O)cc(O)c1 (centres undefined)", "inactive"]
]}

---

molecular target: PGR (gene 5241) (UniProt P06401); assay: TOX21_PR_LUC_Followup_Antagonist: Tox21 HEK293 Progesterone Receptor (PR) Antagonism Luciferase Follow-Up Assay (AID 2283938);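 also: curve fitted upward as signal gain over DMSO baseline despite antagonist label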
Sequence (P06401 whole entry, looked up): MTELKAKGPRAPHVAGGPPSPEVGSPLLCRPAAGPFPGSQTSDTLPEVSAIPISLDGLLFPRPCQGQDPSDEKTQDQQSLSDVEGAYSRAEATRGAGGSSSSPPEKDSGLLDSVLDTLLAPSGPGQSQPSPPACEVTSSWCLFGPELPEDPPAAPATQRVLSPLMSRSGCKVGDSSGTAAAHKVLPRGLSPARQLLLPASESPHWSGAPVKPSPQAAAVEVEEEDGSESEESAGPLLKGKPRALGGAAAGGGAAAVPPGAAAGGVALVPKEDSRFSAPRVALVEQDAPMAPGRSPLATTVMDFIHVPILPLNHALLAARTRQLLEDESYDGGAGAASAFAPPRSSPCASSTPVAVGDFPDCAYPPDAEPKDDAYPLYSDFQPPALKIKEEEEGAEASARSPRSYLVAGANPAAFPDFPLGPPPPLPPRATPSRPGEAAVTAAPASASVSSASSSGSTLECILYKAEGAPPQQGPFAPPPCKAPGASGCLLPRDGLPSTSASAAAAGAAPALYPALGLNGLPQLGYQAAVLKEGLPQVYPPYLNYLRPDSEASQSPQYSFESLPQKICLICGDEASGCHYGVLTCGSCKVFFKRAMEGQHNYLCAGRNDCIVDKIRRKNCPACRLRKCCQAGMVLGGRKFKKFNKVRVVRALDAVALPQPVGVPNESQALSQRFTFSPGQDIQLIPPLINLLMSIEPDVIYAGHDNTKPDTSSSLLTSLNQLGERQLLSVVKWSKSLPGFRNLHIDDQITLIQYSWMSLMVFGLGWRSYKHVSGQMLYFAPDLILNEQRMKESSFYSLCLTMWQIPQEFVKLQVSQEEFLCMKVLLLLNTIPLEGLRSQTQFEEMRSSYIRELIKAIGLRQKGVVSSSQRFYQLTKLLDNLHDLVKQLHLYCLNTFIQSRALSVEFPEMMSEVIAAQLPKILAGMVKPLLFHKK
Results filed as inconclusive are left out. Active and inactive are the calls of the source. The calls were made as follows: active = hit-call score of the fitted dose curve at least 0.9, where 1 is the maximum; inconclusive = response in the unintended direction; inactive = score below 0.9.
Labels: active, inactive

{"columns": ["Compound", "Assigned label"],
 "data": [
  ["CC(C)C[C@H](NC(=O)[C@H](Cc1ccccc1)NC(=O)c1cnccn1)B(O)O", "active"],
  ["COC(=O)C1=C(C)NC(C)=C(C(=O)OCCN2CCN(C(c3ccccc3)c3ccccc3)CC2)C1c1cccc([N+](=O)[O-])c1 (configuration not stated)", "active"],
  ["C#C[C@]1(O)CC[C@H]2[C@@H]3CCc4cc(OC5CCCC5)ccc4[C@H]3CC[C@@]21C", "active"],
  ["c1cc[c]([Bi]([c]2ccccc2)[c]2ccccc2)cc1", "inactive"],
  ["Cc1cc(C)c(C=C2C(=O)Nc3ccccc32)[nH]1", "inactive"],
  ["C=C1C(CCl)(CCl)C2(Cl)C(Cl)C(Cl)C1(Cl)C2(Cl)Cl (configuration not stated)", "inactive"],
  ["CC(O)(c1ccc(Cl)cc1)c1ccc(Cl)cc1", "active"]
]}

---

assay: CCTE_Deisenroth_DEVTOX-GLR_legacy_CellCount: (Legacy) Viability Assessment in CCTE's DevTox GLR-Endo Assay, Deisenroth Lab (AID 2284331); conditions: actives raise or lower the signal
Activity calls are given as the source filed them. Rule for the calls: active = hit-call score of the fitted dose curve at least 0.9, where 1 is the maximum; inactive = score below 0.9. *1 amine or outer side, *2 acyl side, *3 side chain or, on linkers, in order; H or OH if unused. Where a SMILES comes first, the peptide text is derived from it. Bridges are numbered along the chain shown (N, C = ends). Roman numbers before positions name the chains, in order. [ ]: non-standard residue; d: D form. Actinocin(9to1) = Cc1c2oc3c(C)ccc(C(=O)[*:1])c3nc-2c(C(=O)[*:2])c(N)c1=O; NMeV = CN[C@H](C(=O)O)C(C)C; Sar = CNCC(=O)O
Measured parameter: AC50

{"columns": ["Compound", "Measured parameter", "Result value"],
 "data": [
  ["CN1CCN2c3ccccc3Cc3ccccc3C2C1 (stereo not given)", "AC50", "36.5 µM (active)"],
  ["Cc1nc2sccn2c(=O)c1CCN1CCC(=C(c2ccc(F)cc2)c2ccc(F)cc2)CC1", "AC50", "9.28 µM (active)"],
  ["O=C(c1ccc(F)cc1)C1CCN(CCn2c(=O)[nH]c3ccccc3c2=O)CC1", "AC50", "58.8 µM (active)"],
  ["Cc1c2oc3c(C)ccc(C(=O)N[C@@H]4C(=O)N[C@H](C(C)C)C(=O)N5CCC[C@H]5C(=O)N(C)CC(=O)N(C)[C@@H](C(C)C)C(=O)O[C@@H]4C)c3nc-2c(C(=O)N[C@@H]2C(=O)N[C@H](C(C)C)C(=O)N3CCC[C@H]3C(=O)N(C)CC(=O)N(C)[C@@H](C(C)C)C(=O)O[C@@H]2C)c(N)c1=O (I: T[dV]P[Sar][NMeV] / II: T[dV]P[Sar][NMeV]; ester I:1-I:C, II:1-II:C; linker I:N-II:N via Actinocin(9to1))", "AC50", "0.000297 µM (active)"],
  ["Cc1ccc(NC(=O)c2ccc(CN3CCN(C)CC3)cc2)cc1Nc1nccc(-c2cccnc2)n1", "AC50", "15.9 µM (active)"]
]}

---

System: Sodium/Iodide Symporter (NIS), SLC5A5 (gene 6528)
Test: CPHEA_Stoker_NIS_Inhibition_RAIU: CPHEA's Radioactive Iodide Uptake (RAIU) Assay for Sodium/Iodide Symporter (NIS) Inhibition, Stoker and Laws Labs (AID 2283841)
Method: CPHEA_Stoker_NIS is a cell-based, single-readout assay that uses hNIS-HEK293T-EPA, a novel human kidney cell line expressing human NIS, with measurements taken at 2 hours after chemical dosing in a 96-well plate. […] A parallel cytoxicity assay (Cell Titer Glo, Promega) was also run in the same cell line.CPHEA_Stoker_NIS_Inhibition_RAIU is one of 2 assay components measured from the CPHEA_Stoker_NIS assay. […]
Inconclusive results are not listed. Active and inactive are the calls of the source. The calls were made as follows: active = hit-call score of the fitted dose curve at least 0.9, where 1 is the maximum; inconclusive = response in the unintended direction; inactive = score below 0.9.
Possible outcomes: active, inactive

{"columns": ["Compound smiles", "Measured on", "Assigned label"],
 "data": [
  ["F[B-](F)(F)F", "Sodium/Iodide Symporter (NIS), SLC5A5 (gene 6528)", "active"],
  ["COC(=O)[C@]1(C)CCC[C@@]2(C)[C@H]1CC=C1C=C(C(C)C)CC[C@@H]12", "Sodium/Iodide Symporter (NIS), SLC5A5 (gene 6528)", "inactive"],
  ["OC(C(F)(F)F)(C(F)(F)F)C(O)(C(F)(F)F)C(F)(F)F", "Sodium/Iodide Symporter (NIS), SLC5A5 (gene 6528)", "inactive"],
  ["Cc1cc2nc3c(=O)[nH]c(=O)nc-3n(C[C@H](O)[C@H](O)[C@H](O)CO)c2cc1C", "Sodium/Iodide Symporter (NIS), SLC5A5 (gene 6528)", "active"]
]}

---

test: TOX21_p53_BLA_p5_viability: Viability Assessment in the Tox21 HCT-116 p53 Agonism Beta-lactamase Assay, Phase 5 (AID 2283600)
Records with an inconclusive call do not appear. Active and inactive are the calls of the source. Rule for the calls: active = hit-call score of the fitted dose curve at least 0.9, where 1 is the maximum; inconclusive = response in the unintended direction; inactive = score below 0.9.
Classes used: label 1 = active, label 0 = inactive

{"columns": ["Compound", "Assigned label"],
 "data": [
  ["CC(C)NC(=O)c1ccccc1N", "label 0"],
  ["Clc1cc(Cl)cc(Cl)c1", "label 0"],
  ["Cc1c(C)c2c(c(C)c1O)CC[C@@](C)(CCC[C@H](C)CCC[C@H](C)CCCC(C)C)O2", "label 0"],
  ["CC(=O)c1ccc(OCC(=O)N2CCCCC2)cc1", "label 0"],
  ["CN(CCO)CC(O)Cn1cnc2c1c(=O)n(C)c(=O)n2C (stereo not drawn) (tested in a mixture with another compound)", "label 0"],
  ["NC(=O)n1c(O)c(C(=O)c2cccs2)c2cc(Cl)ccc21", "label 0"],
  ["CC1c2ccccc2CN1NC(=O)c1ccc(Cl)c(S(N)(=O)=O)c1 (stereo not drawn)", "label 0"],
  ["Nc1ccn([C@@H]2O[C@H](CO)[C@@H](O)C2(F)F)c(=O)n1", "label 0"],
  ["Clc1ccc(Sc2cc(Cl)c(Cl)cc2Cl)cc1", "label 0"],
  ["COc1cc(/C=C/C(=O)O[C@H]2CC[C@]34C[C@]35CC[C@]3(C)[C@@H]([C@H](C)CCC=C(C)C)CC[C@@]3(C)[C@@H]5CC[C@H]4C2(C)C)ccc1O", "label 0"],
  ["COc1ccccc1OCCNCC(O)COc1cccc2[nH]c3ccccc3c12 (stereo not drawn)", "label 0"],
  ["CCCCCCCCCCCCCCCBr", "label 0"],
  ["CCCCCCC/C=C/C=O", "label 0"],
  ["CCCCCCCCCCCCCCCCC(C(=O)O)C(O)(CC(=O)O)C(=O)O (stereo not drawn)", "label 1"],
  ["CC1=C2[C@H](/C=C(\\C)C(=O)O)CC[C@@H](C)[C@H]2CC1", "label 0"],
  ["CC(C)(Oc1ccc(Cl)cc1)C(=O)O", "label 0"],
  ["CCOc1ccc(Cc2nccc3cc(OCC)c(OCC)cc23)cc1OCC", "label 0"],
  ["CCC(=O)O[C@H]1CC[C@H]2[C@@H]3CCc4cc(O)ccc4[C@H]3CC[C@]12C", "label 0"],
  ["O=CC(=O)c1ccccc1", "label 0"],
  ["CCCCCCCCCCOc1cc2c(=O)c(C(=O)OCC)c[nH]c2cc1OCC", "label 0"],
  ["C[C@]12C=CC(=O)N[C@@H]1CC[C@@H]1[C@@H]2CC[C@]2(C)[C@@H](C(=O)Nc3cc(C(F)(F)F)ccc3C(F)(F)F)CC[C@@H]12", "label 0"],
  ["c1ccc2sc(SN3CCOCC3)nc2c1", "label 0"],
  ["Nc1ccc2c3c(cccc13)-c1ccccc1-2", "label 0"]
]}
